Ref: PubChem BioAssay (NCATS)

Test: qHTS of pediatric cancer cell lines to identify multiple opportunities for drug repurposing: Primary screen for Saos-2 cells (AID 1347097); further: nearly all actives have a fitted effect of over 40% in size
Settings: Saos-2 viability, CellTiter-Glo ATP luminescence, 48 h; series mostly up to 46 µM
Description: Drug repurposing or repositioning has been offered as a strategy for drug development in oncology programs. This approach has special potential for childhood cancers and other rare or orphan diseases, where the expected return on new drug development has been a disincentive to pharmaceuticals. […] We employed a titration-based paradigm (quantitative high-throughput screening or qHTS), where all compounds were tested at multiple concentrations for their effect on cell viability. […]
Inconclusive results are not listed. Activity calls are given as the source filed them. The call rests on the fitted dose curve; in most records, active means well fitted cell-killing curve with a large enough effect; inconclusive means small, poorly fitted or top-dose-only effect; inactive means no such curve, though single readings can be large or run the other way.
Labels: 1 (active), -1 (inactive)

| molecule | categoryLabel |
| --- | --- |
| COc1ccnc(CS(=O)c2nc3ccc(OC(F)F)cc3[nH]2)c1OC (stereo unspecified) | -1 |
| CCCCCCCCCCCCCC(=O)N[C@H](CO)[C@H](O)c1ccc([N+](=O)[O-])cc1 | 1 |
| CCc1cc(-c2n[nH]c(C)c2-c2ccc3c(c2)OCCO3)c(O)cc1O | 1 |
| O=C(c1ccc(F)c(F)c1Nc1ccc(I)cc1F)N1CC(O)([C@H]2CCCCN2)C1 | 1 |
| NC(=O)c1ccc(N(C(N)=O)c2c(F)cccc2F)nc1-c1ccc(F)cc1F | -1 |
| COc1ccc(Cn2ccc3ccc(C(=O)NO)cc32)cc1 | -1 |
| CN[C@@H]1CN(c2ccc3c(=O)c(C(=O)O)cn(-c4nccs4)c3n2)C[C@@H]1OC | -1 |
| CC[C@H](NC(=O)[C@H](C)NC)C(=O)N1C[C@@H](O)C[C@H]1Cc1c(-c2[nH]c3cc(F)ccc3c2C[C@H]2C[C@H](O)CN2C(=O)[C@H](CC)NC(=O)[C@H](C)NC)[nH]c2cc(F)ccc12 | 1 |
| CC[C@H](C=C[C@@H](C)[C@H]1CC[C@H]2[C@@H]3CC=C4C[C@@H](O)CC[C@]4(C)[C@@H]3CC[C@]12C)C(C)C | -1 |
| NC[C@H]1O[C@H](O[C@@H]2[C@@H](O)[C@@H](O[C@H]3O[C@H](CO)[C@@H](O)[C@H](N)[C@@H]3O)[C@H](N)C[C@@H]2N)[C@H](O)[C@@H](O)[C@H]1O | -1 |
| CCc1cccc(CC)c1NC(=O)N1Cc2[nH]nc(NC(=O)c3ccc(N4CCN(C)CC4)cc3)c2C1 | 1 |
| C[C@@H]1C[C@H]2[C@@H]3CCC4=CC(=O)C=C[C@]4(C)[C@@]3(F)[C@@H](O)C[C@]2(C)[C@@]1(O)C(=O)CO | -1 |
| CNC1[C@H](O)C(O[C@@H]2C(O)C(O[C@H]3O[C@H]([C@@H](C)NC)CC[C@H]3N)[C@@H](N)C[C@H]2N)OC[C@]1(C)O (stereo partly specified) | -1 |
| CN(C)c1ccc(-c2nc3ncc(Cl)c(N4CCN(CC(=O)Nc5nccs5)CC4)c3[nH]2)cc1 | 1 |
| Cc1cnc(-c2cc(N3CCN(C(=O)CCS(C)(=O)=O)CC3)ncc2Cl)c(C)c1 | -1 |
| C[C@]12C=CC(=O)C=C1CC[C@@H]1[C@@H]2[C@@H](O)C[C@@]2(C)[C@@H]1CC[C@]2(O)C(=O)CO | -1 |
